Recorded values, source patent US9096558B2.

System tested: Nav1.7 (or SCN9A) channel (Homo sapiens, UniProt Q15858)
Sequence (Q15858 whole entry): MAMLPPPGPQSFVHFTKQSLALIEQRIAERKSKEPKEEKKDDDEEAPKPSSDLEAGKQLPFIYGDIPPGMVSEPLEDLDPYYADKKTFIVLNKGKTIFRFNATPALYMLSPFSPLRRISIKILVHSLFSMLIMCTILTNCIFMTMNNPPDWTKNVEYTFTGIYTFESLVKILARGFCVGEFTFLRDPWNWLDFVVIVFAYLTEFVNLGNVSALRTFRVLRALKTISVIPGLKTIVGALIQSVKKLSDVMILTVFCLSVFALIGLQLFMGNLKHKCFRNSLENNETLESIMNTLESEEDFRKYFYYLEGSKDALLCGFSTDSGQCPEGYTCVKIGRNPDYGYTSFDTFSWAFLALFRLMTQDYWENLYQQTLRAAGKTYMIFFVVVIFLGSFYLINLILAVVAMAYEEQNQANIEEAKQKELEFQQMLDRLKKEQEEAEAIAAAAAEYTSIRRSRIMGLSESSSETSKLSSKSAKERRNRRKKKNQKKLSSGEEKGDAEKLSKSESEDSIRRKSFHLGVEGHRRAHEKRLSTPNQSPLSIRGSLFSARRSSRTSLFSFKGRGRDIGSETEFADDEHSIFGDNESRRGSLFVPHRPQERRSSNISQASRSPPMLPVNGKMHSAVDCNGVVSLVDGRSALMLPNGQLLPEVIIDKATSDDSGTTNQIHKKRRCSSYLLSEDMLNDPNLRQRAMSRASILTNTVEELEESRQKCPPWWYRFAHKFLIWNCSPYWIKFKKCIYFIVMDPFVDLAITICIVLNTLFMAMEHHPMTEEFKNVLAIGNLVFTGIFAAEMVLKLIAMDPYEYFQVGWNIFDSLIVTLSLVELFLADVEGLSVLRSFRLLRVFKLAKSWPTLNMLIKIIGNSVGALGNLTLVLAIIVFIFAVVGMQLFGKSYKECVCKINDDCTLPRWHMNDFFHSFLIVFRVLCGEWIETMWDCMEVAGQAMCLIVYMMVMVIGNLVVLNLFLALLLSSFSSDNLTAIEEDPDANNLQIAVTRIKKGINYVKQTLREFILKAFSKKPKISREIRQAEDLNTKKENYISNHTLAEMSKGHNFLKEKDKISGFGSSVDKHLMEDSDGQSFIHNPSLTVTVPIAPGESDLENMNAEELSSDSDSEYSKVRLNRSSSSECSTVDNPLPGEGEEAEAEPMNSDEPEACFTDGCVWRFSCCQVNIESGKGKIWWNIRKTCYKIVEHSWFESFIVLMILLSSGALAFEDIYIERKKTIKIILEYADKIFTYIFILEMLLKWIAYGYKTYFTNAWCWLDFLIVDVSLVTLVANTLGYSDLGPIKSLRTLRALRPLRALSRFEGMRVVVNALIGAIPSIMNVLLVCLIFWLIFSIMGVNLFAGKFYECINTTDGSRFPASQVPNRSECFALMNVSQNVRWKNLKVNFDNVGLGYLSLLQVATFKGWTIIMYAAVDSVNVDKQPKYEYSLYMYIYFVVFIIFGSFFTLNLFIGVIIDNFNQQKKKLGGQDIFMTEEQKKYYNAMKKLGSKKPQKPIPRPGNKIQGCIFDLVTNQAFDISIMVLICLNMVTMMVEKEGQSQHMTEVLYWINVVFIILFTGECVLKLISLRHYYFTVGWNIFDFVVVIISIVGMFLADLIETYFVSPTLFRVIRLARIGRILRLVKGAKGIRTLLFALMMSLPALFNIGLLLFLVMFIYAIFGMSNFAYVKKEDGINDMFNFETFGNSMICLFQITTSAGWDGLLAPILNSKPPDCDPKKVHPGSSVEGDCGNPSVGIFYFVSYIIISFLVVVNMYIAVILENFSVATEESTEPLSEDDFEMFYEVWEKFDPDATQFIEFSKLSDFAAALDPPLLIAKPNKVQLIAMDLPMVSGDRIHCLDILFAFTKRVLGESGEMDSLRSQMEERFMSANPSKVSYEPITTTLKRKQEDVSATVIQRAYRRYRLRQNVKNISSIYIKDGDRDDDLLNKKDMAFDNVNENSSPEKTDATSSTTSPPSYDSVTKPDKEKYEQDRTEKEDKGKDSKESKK
Assay notes: Nav1.7 (hSCN9A) PatchXpress electrophysiology assay
Measurement parameters: estimated IC50 calculated from single point electrophysiology data; PatchXpress platform; HEK cells stably expressing hSCN9A; held at V1/2 of inactivation; read-out: Nav1.7 EIC50
Protocol: The ability of the compounds of formula (I) to block the Nav1.7 (or SCN9A) channel were measured using the assay described below. Human Embryonic Kidney (HEK) cells were transfected with an hSCN9A construct using lipofectamine reagent (Invitrogen), using standard techniques. […] hSCN9A currents in HEK cells were measured using the whole-cell configuration of the patch-clamp technique (Hamill et al., 1981). […]
Measured endpoint: pIC50
// scale note: pIC50 = -log10(conc_M); give the bare number

> print(dat)
                                   compound  measured.endpoint  numeric.readout
1  COc1ccccc1Sc1ccc(S(=O)(=O)Nc2ncns2)cc1C#N [Example 12]              pIC50             6.49
2  N#Cc1cc(S(=O)(=O)Nc2ncns2)ccc1Sc1ccc(C(F)(F)F)cc1-c1ccnnc1 [Example 18]              pIC50             7.15
3  COc1cccc(Sc2ccc(S(=O)(=O)Nc3ncns3)cc2C#N)c1 [Example 3]              pIC50             6.00
4  N#Cc1cc(S(=O)(=O)Nc2ncns2)ccc1Sc1cccc(C(F)(F)F)c1 [Example 13]              pIC50             6.08
5  Nc1cc(-c2cc(C(F)(F)F)ccc2Sc2cc(F)c(S(=O)(=O)Nc3ncccn3)cc2Cl)ccn1 [Example 24]              pIC50             7.14

Please look up its pIC50: O=S(=O)(Nc1nncs1)c1cc(Cl)c(Sc2cccc(C(F)(F)F)c2)cc1F [Example 1] 6.03

---

System tested: Nav1.7 (or SCN9A) channel (Homo sapiens, UniProt Q15858)
Assay notes: Nav1.7 (hSCN9A) PatchXpress electrophysiology assay
Measurement parameters: estimated IC50 calculated from single point electrophysiology data; PatchXpress platform; HEK cells stably expressing hSCN9A; held at V1/2 of inactivation; read-out: Nav1.7 EIC50
Measured endpoint: log10 of IC50 (log10 of the value in nM)
Annotation: log10 of IC50, nM basis.

> print(dat)
                                   compound  numeric.readout
1  O=S(=O)(Nc1nncs1)c1cc(Cl)c(Sc2ccc(F)c(F)c2)cc1F             3.36

Next:
Any idea what log10 of IC50 was measured for "N#Cc1cc(S(=O)(=O)Nc2ncns2)ccc1Sc1ccccc1F" ? 2.96

---

System tested: Nav1.7 (or SCN9A) channel (Homo sapiens)
Assay notes: Nav1.7 (hSCN9A) PatchXpress electrophysiology assay
Measurement parameters: estimated IC50 calculated from single point electrophysiology data; PatchXpress platform; HEK cells stably expressing hSCN9A; held at V1/2 of inactivation; read-out: Nav1.7 EIC50
Recorded pIC50, one value per entry.
pIC50 is a log-scale quantity: -log10 of the concentration expressed in molar.

Examples from the recorded data:
> print(dat)
                                 cpd.smiles                             system.tested  measured.endpoint  numeric.readout
1  COc1cc(C(F)(F)F)ccc1Cc1ccc(S(=O)(=O)Nc2ncns2)cc1C#N  Nav1.7 (or SCN9A) channel (Homo sapiens)              pIC50             8.24
2  COc1ccccc1Sc1cc(F)c(S(=O)(=O)Nc2nncs2)cc1Cl  Nav1.7 (or SCN9A) channel (Homo sapiens)              pIC50             6.60
3  N#Cc1cc(S(=O)(=O)Nc2ncns2)ccc1Sc1ccc(C(F)(F)F)cc1  Nav1.7 (or SCN9A) channel (Homo sapiens)              pIC50             6.72
4  O=S(=O)(Nc1nncs1)c1cc(Cl)c(Sc2cccc(F)c2)cc1F  Nav1.7 (or SCN9A) channel (Homo sapiens)              pIC50             5.48
5  N#Cc1cc(S(=O)(=O)Nc2ncns2)ccc1Sc1ccccc1C(F)(F)F  Nav1.7 (or SCN9A) channel (Homo sapiens)              pIC50             6.03
6  N#Cc1cc(S(=O)(=O)Nc2ncns2)ccc1Cc1ccc(C(F)(F)F)cc1-c1ccnnc1  Nav1.7 (or SCN9A) channel (Homo sapiens)              pIC50             6.85
7  O=S(=O)(Nc1nncs1)c1cc(Cl)c(Sc2ccccc2F)cc1F  Nav1.7 (or SCN9A) channel (Homo sapiens)              pIC50             5.43

Field: next molecule
Any idea what its pIC50 is? The molecule is "O=S(=O)(Nc1nncs1)c1cc(Cl)c(Sc2ccccc2C(F)(F)F)cc1F" 5.29

---

System tested: Nav1.7 (or SCN9A) channel (Homo sapiens)
Assay notes: Nav1.7 (hSCN9A) PatchXpress electrophysiology assay
Measurement parameters: estimated IC50 calculated from single point electrophysiology data; PatchXpress platform; HEK cells stably expressing hSCN9A; held at V1/2 of inactivation; read-out: Nav1.7 EIC50
pIC50: −log10 of the molar value. Structures can show the parent of a compound that is named as a salt.
Lab note: compare pIC50 against 6. Equal or greater, write fulfilled. Smaller, write not fulfilled.

> print(dat)
                                   molecule  qualitative.label
1  COc1ccc(Sc2cc(F)c(S(=O)(=O)Nc3nncs3)cc2Cl)cc1      not fulfilled
2  COc1cccc(Sc2cc(F)c(S(=O)(=O)Nc3nncs3)cc2Cl)c1      not fulfilled
3  O=S(=O)(Nc1nncs1)c1cc(Cl)c(Sc2ccc(C(F)(F)F)cc2)cc1F      not fulfilled
4  O=S(=O)(Nc1nncs1)c1cc(Cl)c(Sc2ccc(C(F)(F)F)cc2-c2ccnnc2)cc1F          fulfilled
5  Nc1cc(-c2cc(C(F)(F)F)ccc2Sc2cc(F)c(S(=O)(=O)Nc3nncs3)cc2Cl)ccn1 [Example 20, hydrochloride]          fulfilled

Could you tell me if the measured pIC50 of "N#Cc1cc(S(=O)(=O)Nc2ncns2)ccc1Sc1ccc(F)c(F)c1" reaches 6 or more? not fulfilled
